- Test system: MOLT-4 (human acute lymphoblastic leukemia cells)
- PROTOCOL DETAILS: MTT cancer cell growth inhibition
- Type: cell-based
- CONDITION NOTES: Homo sapiens, MOLT-4, 72 h, MTT, 72 hours incubation; read-out: GI50 Mol
MEASURED ENDPOINT: GI50 (nM)

{"MOLECULE": "CC(C)=C1NC(=O)c2ccc(F)c(n2)CNC(=O)C[C@@H](/C=C/CCS)OC(=O)[C@H](C(C)C)NC1=O [Compound 138]", "READING": 50}

A. C/C=C1\NC(=O)c2ccc(F)c(n2)CNC(=O)C[C@@H](/C=C/CCSC(C)=O)OC(=O)[C@@H](C)NC1=O [Compound 102]
B. C/C=C1\NC(=O)c2cccc(n2)CNC(=O)C[C@@H](/C=C/CCSC(C)=O)OC(=O)[C@H](CCCCNC(=O)OCC2c3ccccc3-c3ccccc32)NC1=O [Compound 16]
Endpoint returns the identifier whose GI50 is numerically larger, either A or B . State the label of the item chosen.
B
(B: 700 nM, A: 30 nM)

The measurements presented in this section are drawn from patent US10065990B2.
